# EXPERIMENTAL SYSTEM: acetylcholinesterase (Homo sapiens)
# Sequence (P22303 32-614, species assumed): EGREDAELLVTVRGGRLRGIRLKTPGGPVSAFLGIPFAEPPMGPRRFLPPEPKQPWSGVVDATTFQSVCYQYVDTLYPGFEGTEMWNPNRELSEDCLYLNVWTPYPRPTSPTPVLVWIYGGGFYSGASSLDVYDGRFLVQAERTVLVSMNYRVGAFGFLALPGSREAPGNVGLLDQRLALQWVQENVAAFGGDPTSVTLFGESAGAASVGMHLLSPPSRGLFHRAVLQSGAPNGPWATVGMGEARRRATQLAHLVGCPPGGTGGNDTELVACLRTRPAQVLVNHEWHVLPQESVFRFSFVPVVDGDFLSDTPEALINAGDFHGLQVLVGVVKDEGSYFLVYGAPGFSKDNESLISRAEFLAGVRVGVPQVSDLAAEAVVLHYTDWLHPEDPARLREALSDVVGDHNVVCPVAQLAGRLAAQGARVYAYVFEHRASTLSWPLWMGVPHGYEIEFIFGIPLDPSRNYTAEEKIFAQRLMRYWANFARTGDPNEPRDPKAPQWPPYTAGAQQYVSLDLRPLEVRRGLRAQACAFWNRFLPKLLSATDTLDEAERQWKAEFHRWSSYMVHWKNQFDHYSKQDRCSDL
# PROCEDURE DETAILS: biochemical
# TEST PARAMETERS: Tris-HCl pH 8.0, 25 °C, 405 nm; read-out: AChE IC50 (converted)
Mark True for IC50 under 600 µM, False if at or over.

For orientation, consider the following solved cases.
Lab note: IC50 threshold 600 µM. Does this compound come in strictly under it? O=C(C(=O)c1cc(O)cc(O)c1)c1cc(O)cc(O)c1 [Compound 14]
True

Lab note: IC50 threshold 600 µM. Does this compound come in strictly under it? O=C(c1cc(OC2O[C@H](CO)[C@@H](O)[C@H](O)[C@H]2O)cc(OC2O[C@H](CO)[C@@H](O)[C@H](O)[C@H]2O)c1)C(O)c1ccccc1 (stereo partly drawn) [Compound 17]
False

Lab note: IC50 threshold 600 µM. Does this compound come in strictly under it? O=C(c1ccc(O)cc1)C(O)c1ccccc1 (stereo not drawn) [Compound 2]
False

Lab note: IC50 threshold 600 µM. Does this compound come in strictly under it? O=C(c1ccc(OC2O[C@H](CO)[C@@H](O)[C@H](O)[C@H]2O)cc1)C(O)c1ccccc1 (stereo partly drawn) [Compound 16]
True

Lab note: IC50 threshold 600 µM. Does this compound come in strictly under it? O=C(C(=O)c1cccc(OC2O[C@H](CO)[C@@H](O)[C@H](O)[C@H]2O)c1)c1cccc(O)c1 (stereo partly drawn) [Compound 24]
False

More entries:
Lab note: IC50 threshold 600 µM. Does this compound come in strictly under it? O=C(c1cccc(O)c1)C(O)c1ccccc1 (stereo not drawn) [Compound 1]
False

Lab note: IC50 threshold 600 µM. Does this compound come in strictly under it? O=C(c1ccc(OC2O[C@H](CO)[C@@H](O)[C@H](O)[C@H]2O)cc1)C(O)c1cccc(OC2O[C@H](CO)[C@@H](O)[C@H](O)[C@H]2O)c1 (stereo partly drawn) [Compound 19]
True

Lab note: IC50 threshold 600 µM. Does this compound come in strictly under it? O=C(C(=O)c1cccc(OC2O[C@H](CO)[C@@H](O)[C@H](O)[C@H]2O)c1)c1ccc(O)cc1 (stereo partly drawn) [Compound 25]
True

Lab note: IC50 threshold 600 µM. Does this compound come in strictly under it? O=C(c1cc(O)cc(O)c1)C(O)c1ccccc1 (stereo not drawn) [Compound 3]
False

Lab note: IC50 threshold 600 µM. Does this compound come in strictly under it? O=C(c1cc(OC2O[C@H](CO)[C@@H](O)[C@H](O)[C@H]2O)cc(OC2O[C@H](CO)[C@@H](O)[C@H](O)[C@H]2O)c1)C(O)c1cccc(OC2O[C@H](CO)[C@@H](O)[C@H](O)[C@H]2O)c1 (stereo partly drawn) [Compound 20]
False

Lab note: IC50 threshold 600 µM. Does this compound come in strictly under it? O=C(C(=O)c1cccc(O)c1)c1cccc(O)c1 [Compound 11, 1,2-Bis(3-hydroxyphenyl)ethane-1,2-dione]
True

Lab note: IC50 threshold 600 µM. Does this compound come in strictly under it? O=C(C(=O)c1cc(O)cc(O)c1)c1ccccc1 [Compound 10]
True

Lab note: IC50 threshold 600 µM. Does this compound come in strictly under it? O=C(c1ccc(O)cc1)C(O)c1cccc(O)c1 (stereo not drawn) [Compound 5]
False

Lab note: IC50 threshold 600 µM. Does this compound come in strictly under it? O=C(C(=O)c1cccc(O)c1)c1ccc(O)cc1 [Compound 12]
False

Lab note: IC50 threshold 600 µM. Does this compound come in strictly under it? O=C(C(=O)c1ccc(OC2O[C@H](CO)[C@@H](O)[C@H](O)[C@H]2O)cc1)c1ccccc1 (stereo partly drawn) [Compound 22]
True

* * *

IC50 by entry:
# EXPERIMENTAL SYSTEM: UniProt P22303
# PROCEDURE DETAILS: biochemical
# TEST PARAMETERS: Tris-HCl pH 8.0, 25 °C, 405 nm; read-out: AChE IC50 (converted)

Worked cases, answers included:
Value sought: IC50, system UniProt P22303, item O=C(c1cccc(O)c1)C(O)c1cccc(O)c1 (centres unmarked) . Result: 454 µM

Value sought: IC50, system UniProt P22303, item O=C(c1cc(O)cc(O)c1)C(O)c1cc(O)cc(O)c1 (centres unmarked) . Result: 443 µM

More entries:
Value sought: IC50, system UniProt P22303, item O=C(C(=O)c1cccc(O)c1)c1ccccc1 . Result: > 4420 µM

Value sought: IC50, system UniProt P22303, item O=C(c1cccc(OC2O[C@H](CO)[C@@H](O)[C@H](O)[C@H]2O)c1)C(O)c1ccccc1 (some centres unmarked) . Result: 30.7 µM

Value sought: IC50, system UniProt P22303, item O=C(C(=O)c1cc(OC2O[C@H](CO)[C@@H](O)[C@H](O)[C@H]2O)cc(OC2O[C@H](CO)[C@@H](O)[C@H](O)[C@H]2O)c1)c1ccccc1 (some centres unmarked) . Result: 124 µM

Value sought: IC50, system UniProt P22303, item O=C(C(=O)c1cc(O)cc(O)c1)c1cccc(O)c1 . Result: > 3870 µM

Value sought: IC50, system UniProt P22303, item O=C(C(=O)c1cccc(OC2O[C@H](CO)[C@@H](O)[C@H](O)[C@H]2O)c1)c1ccccc1 (some centres unmarked) . Result: > 2570 µM

Value sought: IC50, system UniProt P22303, item O=C(C(=O)c1ccc(O)cc1)c1ccccc1 . Result: 637 µM

* * *

log10(MIC) by entry:
# Tested on: Escherichia coli ATCC 25922
# PROCEDURE DETAILS: MIC, microdilution, E. coli
# Type: cell-based
# TEST PARAMETERS: Escherichia coli, ATCC25922, read-out: MIC Ec
The figures below represent log10 of MIC, where MIC is stated in µg/mL.

Documented log10(MIC) of O=C(C(=O)c1cc(O)cc(O)c1)c1cc(O)cc(O)c1 : 2.01

More entries:
Documented log10(MIC) of O=C(C(=O)c1cc(O)cc(O)c1)c1cccc(O)c1 : 2.22

Documented log10(MIC) of O=C(c1cc(O)cc(O)c1)C(O)c1cc(O)cc(O)c1 (stereo not drawn) : 2.15

Documented log10(MIC) of O=C(c1ccc(O)cc1)C(O)c1ccccc1 (stereo not drawn) : 3.01

Documented log10(MIC) of O=C(C(=O)c1ccc(O)cc1)c1ccccc1 : 2.03

Documented log10(MIC) of O=C(C(=O)c1cccc(O)c1)c1ccccc1 : 2.22

* * *

# System: Enterococcus faecalis ATCC29212
# PROCEDURE DETAILS: MIC, microdilution, E. faecalis
# Format: cell-based
# TEST PARAMETERS: Enterococcus faecalis, ATCC29212; Gram (+); Mueller-Hinton broth, 18-24 h, 36 °C; read-out: MIC Ef
QUANTITY NAME: MIC (µg/mL)
Hi! Could you send only the number? It should be in µg/mL, unit omitted.

Value sought: MIC, system Enterococcus faecalis ATCC29212, item O=C(c1ccc(O)cc1)C(O)c1cccc(O)c1 (centres unmarked) . Result: 1550

Value sought: MIC, system Enterococcus faecalis ATCC29212, item O=C(C(=O)c1cc(O)cc(O)c1)c1cc(O)cc(O)c1 . Result: 51

Value sought: MIC, system Enterococcus faecalis ATCC29212, item CC1(C)S[C@@H]2[C@H](NC(=O)[C@H](N)c3ccccc3)C(=O)N2[C@H]1C(=O)O [Amp., Ampicillin, reference compound] . Result: 10

Value sought: MIC, system Enterococcus faecalis ATCC29212, item O=C(C(=O)c1cccc(O)c1)c1ccccc1 . Result: 21

Value sought: MIC, system Enterococcus faecalis ATCC29212, item O=C(c1cc(O)cc(O)c1)C(O)c1cc(O)cc(O)c1 (centres unmarked) . Result: 141

Value sought: MIC, system Enterococcus faecalis ATCC29212, item O=C(C(=O)c1ccc(O)cc1)c1ccccc1 . Result: 108

More entries:
Value sought: MIC, system Enterococcus faecalis ATCC29212, item O=C(c1cc(O)cc(O)c1)C(O)c1ccccc1 (centres unmarked) . Result: 820

Value sought: MIC, system Enterococcus faecalis ATCC29212, item O=C(C(=O)c1cccc(O)c1)c1ccc(O)cc1 . Result: 18

* * *

# Tested on: Staphylococcus aureus ATCC25923
# PROCEDURE DETAILS: MIC, microdilution, S. aureus
# Type: cell-based
# TEST PARAMETERS: Staphylococcus aureus, ATCC25923; Gram (+); Mueller-Hinton broth, 18-24 h, 36 °C; read-out: MIC Sa
MIC by entry:
Hi! Could you send only the number? It should be in µg/mL, unit omitted.

Value sought: MIC, system Staphylococcus aureus ATCC25923, item O=C(C(=O)c1cccc(O)c1)c1ccccc1 [Compound 8] . Result: 11

Value sought: MIC, system Staphylococcus aureus ATCC25923, item O=C(C(=O)c1cc(O)cc(O)c1)c1ccccc1 [Compound 10] . Result: 65

Value sought: MIC, system Staphylococcus aureus ATCC25923, item O=C(C(=O)c1cccc(O)c1)c1cccc(O)c1 [Compound 11, 1,2-Bis(3-hydroxyphenyl)ethane-1,2-dione] . Result: 9

Value sought: MIC, system Staphylococcus aureus ATCC25923, item O=C(C(=O)c1cccc(O)c1)c1ccc(O)cc1 [Compound 12] . Result: 38

Value sought: MIC, system Staphylococcus aureus ATCC25923, item O=C(c1cccc(O)c1)C(O)c1cccc(O)c1 (centres unmarked) [Compound 4] . Result: 640
